The following compounds are shown together with reported inhibition values.
# system.under.test: Fatty acid synthase (Homo sapiens) (UniProt P49327)
# Sequence (P49327 whole entry, looked up): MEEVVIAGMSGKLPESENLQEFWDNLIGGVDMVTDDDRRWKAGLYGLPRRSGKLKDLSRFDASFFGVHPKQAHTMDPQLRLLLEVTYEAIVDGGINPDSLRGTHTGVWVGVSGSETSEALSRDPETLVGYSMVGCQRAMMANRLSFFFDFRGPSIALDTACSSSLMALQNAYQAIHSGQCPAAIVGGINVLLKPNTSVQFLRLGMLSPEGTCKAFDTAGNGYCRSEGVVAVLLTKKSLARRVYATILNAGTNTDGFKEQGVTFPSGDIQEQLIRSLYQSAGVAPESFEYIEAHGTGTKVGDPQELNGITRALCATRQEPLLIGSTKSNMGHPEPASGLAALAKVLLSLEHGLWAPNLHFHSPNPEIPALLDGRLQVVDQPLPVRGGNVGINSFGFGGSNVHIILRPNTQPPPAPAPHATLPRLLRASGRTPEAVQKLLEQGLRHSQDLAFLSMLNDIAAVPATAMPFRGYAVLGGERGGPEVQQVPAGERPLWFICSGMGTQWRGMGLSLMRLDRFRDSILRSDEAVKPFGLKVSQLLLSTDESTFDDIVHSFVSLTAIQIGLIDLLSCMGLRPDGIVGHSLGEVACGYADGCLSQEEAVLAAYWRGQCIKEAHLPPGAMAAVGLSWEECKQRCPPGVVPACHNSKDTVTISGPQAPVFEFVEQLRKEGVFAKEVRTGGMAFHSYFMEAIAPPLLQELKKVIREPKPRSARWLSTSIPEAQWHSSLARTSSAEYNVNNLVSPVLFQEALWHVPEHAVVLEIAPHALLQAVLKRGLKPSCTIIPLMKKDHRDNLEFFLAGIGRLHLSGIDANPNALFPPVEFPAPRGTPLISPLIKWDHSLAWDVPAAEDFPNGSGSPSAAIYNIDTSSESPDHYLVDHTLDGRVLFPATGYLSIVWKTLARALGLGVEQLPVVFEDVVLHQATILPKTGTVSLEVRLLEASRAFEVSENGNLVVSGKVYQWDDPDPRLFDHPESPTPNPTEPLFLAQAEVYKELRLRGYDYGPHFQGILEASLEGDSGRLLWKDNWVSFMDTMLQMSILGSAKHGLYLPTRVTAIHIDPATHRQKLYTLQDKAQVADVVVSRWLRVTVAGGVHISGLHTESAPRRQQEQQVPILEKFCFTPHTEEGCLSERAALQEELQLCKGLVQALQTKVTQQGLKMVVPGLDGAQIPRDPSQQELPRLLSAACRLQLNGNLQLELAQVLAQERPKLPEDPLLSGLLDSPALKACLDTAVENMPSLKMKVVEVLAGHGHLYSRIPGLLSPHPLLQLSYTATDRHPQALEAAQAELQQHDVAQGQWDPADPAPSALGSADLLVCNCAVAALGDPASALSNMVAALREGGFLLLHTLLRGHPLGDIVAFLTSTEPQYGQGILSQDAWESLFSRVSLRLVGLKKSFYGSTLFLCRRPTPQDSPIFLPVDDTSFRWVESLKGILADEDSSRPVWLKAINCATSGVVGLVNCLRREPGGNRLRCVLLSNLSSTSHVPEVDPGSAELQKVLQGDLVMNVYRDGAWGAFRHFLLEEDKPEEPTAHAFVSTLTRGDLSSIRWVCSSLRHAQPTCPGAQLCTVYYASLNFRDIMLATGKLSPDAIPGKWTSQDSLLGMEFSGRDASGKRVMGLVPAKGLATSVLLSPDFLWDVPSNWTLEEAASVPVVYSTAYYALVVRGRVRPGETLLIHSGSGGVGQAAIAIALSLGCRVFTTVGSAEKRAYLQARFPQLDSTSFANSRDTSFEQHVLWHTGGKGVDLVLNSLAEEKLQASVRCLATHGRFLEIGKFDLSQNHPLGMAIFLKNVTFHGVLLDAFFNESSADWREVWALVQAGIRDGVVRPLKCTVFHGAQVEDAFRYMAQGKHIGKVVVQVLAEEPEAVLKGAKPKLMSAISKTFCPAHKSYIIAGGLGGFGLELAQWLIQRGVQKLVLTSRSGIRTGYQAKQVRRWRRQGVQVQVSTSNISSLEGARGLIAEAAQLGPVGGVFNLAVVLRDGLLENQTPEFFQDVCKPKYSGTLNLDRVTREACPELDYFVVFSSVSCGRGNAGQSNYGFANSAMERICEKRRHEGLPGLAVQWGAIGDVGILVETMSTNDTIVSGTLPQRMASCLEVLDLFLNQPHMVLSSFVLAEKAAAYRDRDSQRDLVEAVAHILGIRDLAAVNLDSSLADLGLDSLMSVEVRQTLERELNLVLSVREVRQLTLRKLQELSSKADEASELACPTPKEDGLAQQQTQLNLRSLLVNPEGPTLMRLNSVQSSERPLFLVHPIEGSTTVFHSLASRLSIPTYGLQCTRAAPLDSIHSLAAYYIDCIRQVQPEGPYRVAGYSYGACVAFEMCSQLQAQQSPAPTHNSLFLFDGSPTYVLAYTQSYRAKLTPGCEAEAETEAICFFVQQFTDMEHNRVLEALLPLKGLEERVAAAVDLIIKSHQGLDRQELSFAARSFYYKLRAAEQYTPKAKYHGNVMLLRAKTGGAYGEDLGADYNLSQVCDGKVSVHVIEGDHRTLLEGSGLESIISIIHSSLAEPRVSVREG
# experiment: inhibition of human FAS-TE enzyme activity – biochemical, fluorescence intensity, uHTS, primary screen (AID 602261);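 also: 0% = DMSO with enzyme and 100% = substrate without enzyme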
# details: recombinant FAS-TE, OMFH fluorogenic substrate, fluorescence endpoint; at 15 µM; hits give high values
Hit rate of the full screen: of about 360,000 compounds, about 2,400 (0.67%) were called active. Many of the other results were omitted from the sample, so actives are more common in it than they were.

| compound | inhibition (%) |
| --- | --- |
| COc1ccc(S(=O)(=O)N2CCOCC2)cc1NC(=O)c1ccc(OCC(C)C)c(OC)c1 | 27.8 |
| COc1cc(OC)cc(-c2cc3nc(C4CCN(C(=O)OC(C)(C)C)CC4)cc(=O)n3[nH]2)c1 | -5.7 |
| COc1ccc(CNC(=O)C[C@H]2C[C@H](C(=O)N3CCOCC3)[C@@]3(CCC4CCCC4)c4[nH]c5ccc(Cl)cc5c4CCN3C2=O)cc1OC | 89 |
| Cc1ccc(C2C(C#N)C(C#N)N3CCCN23)cc1 (stereo not given) | -18.8 |
| CN(C)C(=O)CCc1ccc2c3c([nH]c2c1)[C@]1(CCC2CCCC2)[C@@H](C(=O)N2CCOCC2)C[C@H](CC(=O)NCc2ccco2)C(=O)N1CC3 | 21.1 |
| COc1ccc2[nH]c3c(c2c1)CCN1C(=O)C(CC(=O)NCCCN(C)C)C[C@H](C(=O)N2CCOCC2)[C@@]31CCC1CCCC1 (stereo not given in full) | 43.3 |
| COc1cccc(C2CC(c3ccccc3)=NN2S(=O)(=O)c2ccccc2)c1OC (stereo not given) | 20 |
| CCC(C)(C)NC(=O)c1cc([N+](=O)[O-])ccc1N1CCCCC1 | 9.2 |
| COc1ccccc1C1CC(=O)n2c(nc(-c3ccccc3)c2-c2ccccc2)S1 (stereo not given) | 54.5 |
| CC(C)C(=O)Nc1cccc(NC(=O)c2ccc([N+](=O)[O-])cc2Cl)c1 | -13.2 |
| Cc1noc(C)c1C(=O)N1CCC1(C)C(=O)NS(=O)(=O)c1ccc(C#N)cc1 (stereo not given) | -9 |
| COc1cc(-c2noc(C3CCCN(S(=O)(=O)c4cccc(Cl)c4)C3)n2)cc(OC)c1OC (stereo not given) | 50.7 |
| COCc1c(N)c(C)nc(Cl)c1C#N | -5.4 |
| COc1cc(OC)cc(C(=O)NC2CCN(C(=O)N3c4ccccc4Sc4ccccc43)CC2)c1 | 38.7 |
| CCN1CCN(c2ccc([N+](=O)[O-])cc2C(=O)c2ccc(Cl)cc2)CC1 | 24.4 |
| CC(C)c1ccc(C(=O)OC2CCOC2=O)cc1 (stereo not given) | -2.3 |
| CC1(C(=O)NS(=O)(=O)c2ccc(C#N)cc2)CCN1C(=O)CC1CCCC1 (stereo not given) | 4.2 |
| Cc1ccccc1CSc1nnc(-c2ccccn2)n1N | -5.3 |
| O=C(OC1CCOC1=O)c1ccc(-c2nc3ccccc3s2)s1 (stereo not given) | 51.7 |
| CC[C@]12c3[nH]c4ccc(Cl)cc4c3CCN1C(=O)[C@@H](CC(=O)NCCN1CCOCC1)C[C@@H]2C(=O)N1CCN(C(=O)C2CC2)CC1 | -7.3 |

====

# system.under.test: Fatty acid synthase (Homo sapiens)
# experiment: inhibition of human FAS-TE enzyme activity – biochemical, fluorescence intensity, uHTS, primary screen (AID 602261);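 also: 0% = DMSO with enzyme and 100% = substrate without enzyme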
# details: recombinant FAS-TE, OMFH fluorogenic substrate, fluorescence endpoint; at 15 µM
Screen size: about 360,000 compounds; about 2,400 (0.67%) were called active.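 How the source made its calls: active means compounds whose normalised, plate-corrected inhibition of enzyme fluorescence in the single-dose primary screen is 50% or more; inactive means the rest.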 This is one part of a sample in which actives are shown more often than they occur.
Outcome codes: active, inactive

| compound | assigned.label |
| --- | --- |
| Cc1nn(Cc2ccc(F)cc2)c(C)c1NC(=O)c1noc2c1CCc1ccccc1-2 | inactive |
| Cc1cccc(N2C(=O)N3[C@H](c4ccc(F)cc4)[C@@H]4C(=O)N(C5CCCCC5)C(=O)[C@@H]4[C@]3(Cc3ccccc3)C2=O)c1 | active |
| Cc1cccc(C(=O)OCC(=O)NC(C)C2CC3CCC2C3)c1O (stereo not drawn) | inactive |
| O=C(NCc1ccccc1)C1CCCN(c2nc3ccsc3c(=O)s2)C1 (stereo not drawn) | inactive |
| O=C1[C@H]2[C@@H](c3ccc(Cl)cc3)N3C(=O)N(c4cccc(F)c4)C(=O)[C@@]3(Cc3ccccc3)[C@H]2C(=O)N1C1CCCCC1 | active |
| CC12C(=O)N(c3ccccc3)C(=O)C1C(c1ccccc1)N1CCCN12 (stereo not drawn) | inactive |
| CCN1C(=O)[C@H]2[C@@H](c3ccc(C)cc3)N3C(=O)N(c4cccc(Br)c4)C(=O)[C@@]3(CC)[C@H]2C1=O | inactive |
| Cc1ccc([C@H]2N[C@]3(CCCN(CC4CCCCC4)C3=O)[C@H]3C(=O)N(Cc4ccccc4)C(=O)[C@@H]23)cc1 | inactive |

====

# system.under.test: Fatty acid synthase (Homo sapiens)
# experiment: inhibition of human FAS-TE enzyme activity – biochemical, fluorescence intensity, uHTS, primary screen (AID 602261);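 also: 0% = DMSO with enzyme and 100% = substrate without enzyme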
# details: recombinant FAS-TE, OMFH fluorogenic substrate, fluorescence endpoint; at 15 µM; hits give high values
The whole screen tested about 360,000 compounds, of which about 2,400 (0.67%) were called active. The entries come from a sample that favours actives as a whole.
The following compounds are shown together with reported inhibition values.

| compound | system.under.test | units | inhibition |
| --- | --- | --- | --- |
| COCCn1c(CN2CCC(Cc3ccccc3)CC2)nc2c1c(=O)n(C)c(=O)n2C | Fatty acid synthase (Homo sapiens) | % | 53.4 |
| Cc1ccccc1-c1nc(CS(=O)(=O)CC(=O)N2CCc3ccccc3C2)c(C)o1 | Fatty acid synthase (Homo sapiens) | % | 10 |
| O=C(Nc1ccccc1)c1ccc2nsnc2c1 | Fatty acid synthase (Homo sapiens) | % | -6.4 |
| C[n+]1cc(-c2ccccc2)oc1-c1ccccc1 | Fatty acid synthase (Homo sapiens) | % | -4.9 |
| COCCSc1nnc(NC(=O)c2cc(OC)c(OC)cc2[N+](=O)[O-])s1 | Fatty acid synthase (Homo sapiens) | % | -10.4 |
| O=C(Nc1ccc(OC(F)(F)F)cc1)c1ccc2c(c1)no[n+]2[O-] | Fatty acid synthase (Homo sapiens) | % | 50.7 |
| O=[N+]([O-])c1cc(Br)c(O)c(/C=N/Nc2nc3ccccc3s2)c1 | Fatty acid synthase (Homo sapiens) | % | 52.5 |
| O=C(Nc1cccc(S(=O)(=O)Nc2ccc(Cl)cc2)c1)c1ccc2c(c1)OCCO2 | Fatty acid synthase (Homo sapiens) | % | 54 |
| Brc1ccccc1/C=N/Nc1nc2ccccc2o1 | Fatty acid synthase (Homo sapiens) | % | -4.3 |
| CC(NS(=O)(=O)c1ccc(Cl)cc1)C(=O)Nc1ccc2c(c1)OCCO2 (stereo unspecified) | Fatty acid synthase (Homo sapiens) | % | -2.1 |
| CCc1nnc(NS(=O)(=O)c2ccc(NC(=O)c3cccc(OC(F)(F)C(F)F)c3)cc2)s1 | Fatty acid synthase (Homo sapiens) | % | 15.6 |

====

# system.under.test: Fatty acid synthase (Homo sapiens) (UniProt P49327)
# experiment: inhibition of human FAS-TE enzyme activity – biochemical, fluorescence intensity, uHTS, primary screen (AID 602261);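 also: 0% = DMSO with enzyme and 100% = substrate without enzyme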
# details: recombinant FAS-TE, OMFH fluorogenic substrate, fluorescence endpoint; at 15 µM
Hit rate of the full screen: of about 360,000 compounds, about 2,400 (0.67%) were called active.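 The calls were made as follows: active = compounds whose normalised, plate-corrected inhibition of enzyme fluorescence in the single-dose primary screen is 50% or more; inactive = the rest.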 This excerpt belongs to a sample that is enriched for actives.
Outcome codes: class 1 for active, class 0 for inactive

| compound | assigned.label |
| --- | --- |
| COc1ccc(OC)c(NC(=O)c2cc(-c3cc(F)ccc3OCC3CCCO3)n[nH]2)c1 (stereo not drawn) | class 0 |
| O=C(CNC(=O)OCc1ccccc1)NC1CCCCNC1=O (stereo not drawn) | class 0 |
| CC(C)[C@H](NC(=O)N1c2ccccc2NC(=O)[C@@H]1C(C)C)C(=O)N[C@H](C(=O)O)c1ccccc1 | class 0 |
| Cc1ccc(NC(=O)[C@H](Cc2ccccc2)NC(=O)CC[C@H]2O[C@@H](n3ccc(=O)[nH]c3=O)[C@H](O)[C@@H]2O)cc1C | class 0 |
| CN(C)c1ccc(S(=O)(=O)NCC(=O)NCC2CCCCC2)cc1[N+](=O)[O-] | class 0 |
| CCCn1c(SCC(=O)Nc2ccc(C)c(S(=O)(=O)N3CCOCC3)c2)n[nH]c1=O | class 0 |
| COC(=O)c1cccc(N2C(=O)C3C4C=CC(CC4)C3C2=O)c1 (stereo not drawn) | class 0 |
| CCN1C(=O)[C@H]2[C@@H](c3ccc(-c4ccc(OC)cc4)cc3)N[C@@](Cc3ccccc3)(C(=O)OC)[C@H]2C1=O | class 0 |
| COCCNC(=O)CCCn1c(=O)c2ccccc2n(Cc2cccc([N+](=O)[O-])c2)c1=O | class 1 |
| Fc1ccc2nc(Nc3nc4c(s3)CCCC4)sc2c1 | class 0 |
| CCCn1c(N)c(C(=O)CSc2nc3ccccc3c(=O)n2-c2ccc(OC)cc2)c(=O)[nH]c1=O | class 0 |
| CC1=CC(=C(C#N)c2nc3ccccc3s2)C=C(C)N1c1ccc(F)cc1F | class 1 |
| COc1ccc(CNC(=O)C(=O)NCC2OCCN2C(=O)c2ccc(OC)cc2)cc1 (stereo not drawn) | class 0 |
| CN(C)c1ccc(/C=C/C(=O)c2ccc(C(C)(C)C)cc2)cc1[N+](=O)[O-] | class 1 |
| CC(C)(C)c1ccc(/C=C/C(=O)NC2CCS(=O)(=O)C2)cc1 (stereo not drawn) | class 0 |
| O=C(COC(=O)c1cc([N+](=O)[O-])ccc1NCc1ccccc1)NC1CCCCC1 | class 1 |
| O=C(N=C1SC2CS(=O)(=O)CC2N1c1ccccc1)c1ccccc1 (stereo not drawn) | class 0 |
| Cc1ccc2cc3cc(C(=O)N4CCCCCC4)oc3nc2c1 | class 1 |
| CCCCNC(=O)CCn1c(=O)c2ccccc2n(Cc2cc(C)ccc2C)c1=O | class 0 |
| Cc1ccc([C@@H]2CC(=O)[C@@H]3CN(S(=O)(=O)c4ccc(C)cc4)[C@H](c4ccccc4F)C[C@@H]3N2S(=O)(=O)c2ccc(Cl)cc2)cc1 | class 0 |
| Cc1cc(Cl)ccc1OCCCC(=O)Nc1cccc(-n2cnnn2)c1 | class 0 |
| CCOC(=O)c1cc(-c2ccc(F)cc2)n(CC(=O)NCc2ccccn2)c1C | class 0 |
| Cc1ccc2oc(=O)c3cnn(CC(=O)N4CCCCCC4)c3c2c1 | class 0 |
| Cn1cc(S(=O)(=O)N2CCC(Cc3ccccc3)CC2)c(=O)n(C)c1=O | class 0 |
| O=C(Nc1cccc(S(=O)(=O)N2CCOCC2)c1)C12CC3CC(CC(C3)C1)C2 | class 0 |
| O=S(=O)(NCCCCCCNS(=O)(=O)c1c(F)cccc1F)c1ccc2c(c1)OCCO2 | class 0 |
| CCNc1c(NS(=O)(=O)c2ccc(C3CCCCC3)cc2)c(=O)oc2ccccc12 | class 0 |
| Cc1ccc(S(=O)(=O)N2CC[C@H]3[C@@H](C2)C(=O)C[C@@H](c2ccccc2)N3S(=O)(=O)c2ccc(C)cc2)cc1 | class 1 |
| C/C(=N\NC(=O)c1cccnc1)c1ccc(-n2ccnc2)cc1 | class 0 |
| CCc1ccc([C@@H]2CC(=O)[C@@H]3CN(S(=O)(=O)c4ccc(C)cc4)[C@H](c4ccc(Cl)cc4)C[C@@H]3N2S(=O)(=O)c2ccc(C)cc2)cc1 | class 0 |
| COc1ccccc1CNC(=O)CCCn1c(=O)c2ccccc2n(CC(=O)NC2CCCC2)c1=O | class 0 |
| CCCSc1ccc([C@H]2N[C@@](Cc3ccccc3)(C(=O)OC)[C@H]3C(=O)N(C)C(=O)[C@@H]23)cc1 | class 0 |
| O=C(Nc1cccc(-n2cnnn2)c1)c1cccnc1 | class 0 |
| CC1CCCCC1NC(=O)C1CCCN1S(=O)(=O)c1cccc2nsnc12 (stereo not drawn) | class 0 |
| CCN1C(=O)[C@H]2[C@@H](c3ccc(-c4ccc(F)cc4)cc3)N[C@@](Cc3ccccc3)(C(=O)OC)[C@H]2C1=O | class 1 |
| COc1ccc(Br)c(Cn2c(C)c(C(=O)NCc3cccs3)sc2=O)c1 | class 0 |
| CCCCCN(C(=O)CCC(=O)OCC(=O)NC1CCC(C)CC1)c1c(N)n(CCCC)c(=O)[nH]c1=O (stereo not drawn) | class 0 |
| CC(=O)Nc1ccc(N2C(=O)C3C4CC(=O)C(c5ccccc54)C3C2=O)cc1 (stereo not drawn) | class 0 |
